Experiment: qHTS RealTime-Glo MT Cell Viability Assay in HepG2 cells - 16 hour (AID 1224885); further: nearly all actives have a fitted effect of over 50% in size
Details: RealTime-Glo luminescence; series mostly up to 76.8 µM
Inconclusive results are not listed. Calls of active or inactive are those of the source. The call rests on the fitted dose curve; in most records, active means well fitted cell-killing curve with a large enough effect in the repeat runs; inconclusive means weak or mixed curves; inactive means flat fitted curve, though single readings scatter.
Outcomes: active, inactive

chemical.string	assigned.category
CC(c1cc(C(C)(C)C)cc(C(C)(C)C)c1O)c1cc(C(C)(C)C)cc(C(C)(C)C)c1O	inactive
N#Cc1nc(Cl)c(Cl)c(Cl)c1Cl	active
Cc1cccc2c1ccc1ccccc12	inactive
O=C1CCC/C=C\CCCCCCCCCC1	inactive
CCCCCCCCCCCC(=O)Cl	inactive
CC(C)=CCC[C@H](C)CC=O	inactive
Clc1ccc2c(Cl)ccnc2c1	inactive
CN1CCN(C)CC1	inactive
O=[N+]([O-])c1ccc(CO)cc1	inactive
Oc1ccc2c(c1)CCC2	inactive
Cn1c(=O)[nH]c2ncn(C)c2c1=O	inactive
CCCCCCCC/C=C\CCCCCCCC(=O)N(CCO)CCO	inactive
Oc1ccc(Cl)cc1C1CCCC1	inactive
c1ccc2cc3c4ccccc4c4ccccc4c3cc2c1	inactive
CCOC(=O)OC(=O)OCC	inactive
CC(C)(C)c1cc(CCC(=O)OCCSCCOC(=O)CCc2cc(C(C)(C)C)c(O)c(C(C)(C)C)c2)cc(C(C)(C)C)c1O	inactive
c1ccc2occc2c1	inactive
O=C1c2ccccc2C(=O)c2c(Cl)cccc21	inactive
CN(C[C@@H](CC[N+]12CCC(C3CCCCC3)(CC1)CC2)c1ccc(Cl)c(Cl)c1)C(=O)c1cc(C(F)(F)F)cc(C(F)(F)F)c1	active
CCN(CC)c1ccc(C=O)cc1	inactive
N#CCCOCCC#N	inactive
C/C=C/C(=O)C1=C(C)C=CCC1(C)C	inactive
Cc1ccc2n[nH]nc2c1	inactive
O=C(NCc1ncc(C(F)(F)F)cc1Cl)c1c(Cl)cccc1Cl	inactive
Nc1cccnc1N	inactive
CCc1c(C)cc(N)c(CC)c1N	inactive
C[C@H]1O[C@@H](O[C@H]2CC[C@@]3(C)[C@H](CC[C@@H]4[C@@H]3C[C@@H](O)[C@]3(C)[C@@H](C5=CC(=O)OC5)CC[C@]43O)C2)C[C@H](O)[C@@H]1O[C@H]1C[C@H](O)[C@H](O[C@H]2C[C@H](O)[C@H](O[C@@H]3O[C@H](CO)[C@@H](O)[C@H](O)[C@H]3O)[C@@H](C)O2)[C@@H](C)O1	inactive
Brc1cc(Br)cc(Br)c1	inactive
CC/C=C(\C)C=O	inactive
C/C=C/C(=O)OCC(C)C	inactive
Cc1c[nH]c(=O)[nH]c1=O	inactive

* * *

Assay: qHTS assay to identify small molecule agonists of the estrogen related receptor signaling pathway with the pleiotropic PPARgamma coactivator (PGC) from Tox21 10K library (AID 1224842); further: nearly all actives have a fitted effect of over 15% in size
Details: PGC/ERR reporter cell line, luciferase ONE-Glo, 18 h; series mostly up to 92.4 µM
Inconclusive results are not listed. Active and inactive are the calls of the source. Calls follow the shape of the dose curve; as a rule, active = well fitted activation curve with a large enough effect in the repeat runs; inconclusive = weak or mixed curves, or effect the other way; inactive = no such curve, though single readings can be large or run the other way.
Outcomes: 1 for active, 0 for inactive

compound	assigned.category
CCCCCCCCCCCCCCCCC(C(=O)O)C(O)(CC(=O)O)C(=O)O (stereo not drawn)	0
CCC1(C)C(=O)N(Cl)C(=O)N1Cl (stereo not drawn)	0
Cc1ccc2n[nH]nc2c1	0
C[C@H]1O[C@@H](O[C@H]2CC[C@@]3(C)[C@H](CC[C@@H]4[C@@H]3C[C@@H](O)[C@]3(C)[C@@H](C5=CC(=O)OC5)CC[C@]43O)C2)C[C@H](O)[C@@H]1O[C@H]1C[C@H](O)[C@H](O[C@H]2C[C@H](O)[C@H](O[C@@H]3O[C@H](CO)[C@@H](O)[C@H](O)[C@H]3O)[C@@H](C)O2)[C@@H](C)O1	0
CN1CC[C@H](c2c(O)cc(O)c3c(=O)cc(-c4ccccc4Cl)oc23)[C@H](O)C1	1
c1ccc2occc2c1	0
Oc1cccc2c(O)cccc12	0
CC(O)(c1ccc(Cl)cc1)c1ccc(Cl)cc1	0
O=C1OC2(c3ccccc31)c1ccc(O)c(Br)c1Oc1c2ccc(O)c1Br	0
CCCCCCCCc1ccc(Nc2ccc(CCCCCCCC)cc2)cc1	0
Clc1nc(C(Cl)(Cl)Cl)c(Cl)c(Cl)c1Cl	0
Oc1ccc2c(c1)CCC2	0
O[Si](c1ccccc1)(c1ccccc1)c1ccccc1	0
O=C1CCC(=O)N1	0
C=C1C(CCl)(CCl)C2(Cl)C(Cl)C(Cl)C1(Cl)C2(Cl)Cl (stereo not drawn)	0
c1ccc(-c2ccc(C(c3ccccc3)n3ccnc3)cc2)cc1 (stereo not drawn)	0
C/C=C/C(=O)C1=C(C)C=CCC1(C)C	0
O=C1CCCCCCCCCCCCCC1	0
Nc1ccc(F)c([N+](=O)[O-])c1	0
O=C(CCCCCCCCc1cccnc1)N1CCC(C=C(c2ccccc2)c2ccccc2)CC1	0
CCCOC(=O)c1ccc(O)cc1	1
Nc1ccc(Oc2cccc(Oc3ccc(N)cc3)c2)cc1	0
C=C1CC[C@H]2O[C@]2(C)CC[C@@H]2[C@@H]1CC2(C)C	0

* * *

Assay: qHTS assay to identify small molecule antagonists of the estrogen related receptor (ERR) signaling pathway from Tox21 library - cell viability counter screen (AID 1224834); further: nearly all actives have a fitted effect of over 30% in size
Details: ERR reporter cells viability, CellTiter-Fluor, 17.5 h; series mostly up to 92.4 µM
Results filed as inconclusive are left out. Calls of active or inactive are those of the source. The call rests on the fitted dose curve; in most records, active means well fitted cell-killing curve with a large enough effect in the repeat runs; inconclusive means weak or mixed curves; inactive means flat fitted curve, though single readings scatter.
Outcomes: active, inactive

molecule	assigned.category
Clc1ccc2c(Cl)ccnc2c1	inactive
CC(O)(c1ccc(Cl)cc1)c1ccc(Cl)cc1	active
Nc1cc([N+](=O)[O-])ccc1Cl	inactive
C=C1CC[C@H]2O[C@]2(C)CC[C@@H]2[C@@H]1CC2(C)C	inactive
Oc1ccc(Cl)cc1C1CCCC1	inactive
Cc1ccc(C2OC[C@@H]3OC(c4ccc(C)cc4)O[C@H]([C@H](O)CO)[C@@H]3O2)cc1 (some centres undefined)	inactive
C=CC(=O)O[C@H]1C[C@@H]2CC[C@@]1(C)C2(C)C	inactive
[Cl][Eu]([Cl])[Cl]	inactive
Cc1cccc2c1ccc1ccccc12	inactive

* * *

Assay: qHTS assay to test for compound auto fluorescence at 535 nm (green) in HepG2 cells (AID 720675)
Conditions: green autofluorescence 485/535 nm, 1 h; series mostly up to 46 µM
Calls of active or inactive are those of the source. The call rests on the fitted dose curve; in most records, active means well fitted curve in the direction sought with a large enough effect in the repeat runs; inconclusive means weak or mixed curves; inactive means flat fitted curve, though single readings scatter.
Outcomes: active, inactive

compound	assigned.category
O=C(O)/C=C/C(=O)Nc1ccc(S(=O)(=O)Nc2nccs2)cc1	inactive
CC1(C)C[C@@H]1C(=O)N/C(=C\CCCCSC[C@H](N)C(=O)O)C(=O)O	inactive
O=C(Nc1ccccc1)c1cc(Cl)ccc1O	inactive
CC(=O)[C@]1(O)Cc2c(O)c3c(c(O)c2[C@@H](O[C@H]2C[C@H](N)[C@H](O)[C@H](C)O2)C1)C(=O)c1ccccc1C3=O	active
CCC1OC(=O)C[C@@H](O)[C@H](C)[C@@H](O[C@@H]2O[C@H](C)C[C@H](N(C)C)[C@H]2O)[C@@H](CC=O)C[C@@H](C)C(=O)/C=C/[C@]2(C)OC2C1C (some centres undefined)	inactive
CCCCCCCCCCCCCCCCC(C(=O)O)C(O)(CC(=O)O)C(=O)O (centres undefined)	inactive
N#Cc1c(N(CC(=O)O)CC(=O)O)sc(C(=O)O)c1CC(=O)O	inactive
COc1c(Br)cc(Br)c(C)c1Br	inactive
CC(C)OC(=O)Nc1ccc2nc(-c3cscn3)[nH]c2c1	inactive

* * *

Assay: qHTS assay to identify small molecule agonists of H2AX - cell viability counter screen (AID 1224847); further: nearly all actives have a fitted effect of over 30% in size; further: potency means the concentration at half of the fitted maximal effect
Details: CHO-K1 viability, CellTiter-Glo luminescence, 3 h; series mostly up to 154 µM
Inconclusive results are not listed. The source made the active and inactive calls. The call rests on the fitted dose curve.
measured.attribute: Potency

molecule	data.value
CC(c1cc(C(C)(C)C)cc(C(C)(C)C)c1O)c1cc(C(C)(C)C)cc(C(C)(C)C)c1O	inactive
NCc1cccc(C2CCN(C(=O)c3ccc(C#Cc4ccccc4F)o3)CC2)c1	56.6 µM (active)
Cc1ccc(S(=O)(=O)C(I)I)cc1	22.5 µM (active)
CCCCCCCCCCCCCCCCC(C(=O)O)C(O)(CC(=O)O)C(=O)O (stereo not drawn)	inactive
Clc1nc(C(Cl)(Cl)Cl)c(Cl)c(Cl)c1Cl	inactive
O=C1OC(=O)c2cc(-c3ccc4c(c3)C(=O)OC4=O)ccc21	inactive
C=COCCCC	inactive
Nc1cc([N+](=O)[O-])ccc1Cl	inactive
CC(C)C(=O)C(C)C	inactive
CC(C)(c1ccc(Oc2ccc(N)cc2)cc1)c1ccc(Oc2ccc(N)cc2)cc1	80 µM (active)
O=C1CCC(=O)N1	inactive
CCCCCCCCSCc1cc(C)c(O)c(CSCCCCCCCC)c1	inactive
CCC(O)CO (stereo not drawn)	inactive
O=C(Nc1ccc([N+](=O)[O-])cc1)Nc1ccc([N+](=O)[O-])cc1 (tested in a mixture with another compound)	17.5 µM (active)
COC(=O)c1ccc([N+](=O)[O-])cc1	inactive
O=c1cc[nH]cc1	inactive
CCCCC/C=C\C=C\C(=O)OCC	inactive
CC1(C)[C@H]2CC[C@]1(C)C(=O)C2	inactive
Cc1ccc2sc3cccc(C)c3c2c1	inactive
CCCOC(=O)c1ccc(O)cc1	inactive
N#Cc1ccc(C/C(=N/NC(=O)Nc2ccc(OC(F)(F)F)cc2)c2cccc(C(F)(F)F)c2)cc1	inactive
CCN(CC)c1ccc(C=O)cc1	inactive
N#CCCOCCC#N	inactive
CCc1cccc(CC)c1	inactive
Cc1ccc(C2OC[C@@H]3OC(c4ccc(C)cc4)O[C@H]([C@H](O)CO)[C@@H]3O2)cc1 (stereo partly drawn)	inactive
O[Si](c1ccccc1)(c1ccccc1)c1ccccc1	101 µM (active)
Brc1cc(Br)cc(Br)c1	inactive
C1CCSC1	inactive
CCN(CC)c1ccc(N=Nc2ccccc2)cc1	113 µM (active)
Cn1c(=O)[nH]c2ncn(C)c2c1=O	inactive
CCC(C)(C)c1ccc(CC(C)CN2C[C@@H](C)O[C@@H](C)C2)cc1 (stereo partly drawn)	55.2 µM (active)
CCCCCCCCc1ccc(Nc2ccc(CCCCCCCC)cc2)cc1	inactive
ClC(c1ccccc1)(c1ccccc1)c1ccccc1	inactive
C[C@H]1O[C@@H](O[C@H]2CC[C@@]3(C)[C@H](CC[C@@H]4[C@@H]3C[C@@H](O)[C@]3(C)[C@@H](C5=CC(=O)OC5)CC[C@]43O)C2)C[C@H](O)[C@@H]1O[C@H]1C[C@H](O)[C@H](O[C@H]2C[C@H](O)[C@H](O[C@@H]3O[C@H](CO)[C@@H](O)[C@H](O)[C@H]3O)[C@@H](C)O2)[C@@H](C)O1	inactive
COc1cccc(-c2ccc(/C=C\CN3CCCCCC3)cc2Cl)c1	89.3 µM (active)
c1ccc(C[P+](c2ccccc2)(c2ccccc2)c2ccccc2)cc1	101 µM (active)
C/C(=C\c1ccc(C(=O)O)cc1)c1ccc2c(c1)C(C)(C)CCC2(C)C	inactive
Cc1cccc2c1ccc1ccccc12	inactive
